target: MOR (Homo sapiens)
Decision: Bias factor (cAMP-Tango) hMOR >= 20 yields True, all other cases yield False.

Some solved entries appear below for comparison.
O=C(N[C@@H]1CC[C@@]2(O)C3Cc4ccc(O)cc4[C@@]2(CCN3CC2CC2)C1)c1cccc(I)c1 = False
CO[C@@]12CC[C@@H](NC(=O)c3cccc(I)c3)C3Oc4c(O)ccc5c4[C@@]31CCN(CC1CC1)C2C5 (some centres unmarked) = False
O=C(NC1CCC2(O)C3Cc4ccc(O)c5c4C2(CCN3CC2CC2)C1O5)c1cccc(I)c1 (centres unmarked) = True
O=C(NC1C=CC2C3Cc4ccc(O)c5c4C2(CCN3CC2CC2)C1O5)c1cccc(I)c1 (centres unmarked) = False

input: Is it the case that O=C(N[C@@H]1CCC2C3Cc4ccc(O)c5c4[C@@]2(CCN3CC2CC2)C1O5)c1cccc(I)c1 (some centres unmarked) has Bias factor (cAMP-Tango) hMOR reaching or exceeding 20?
output: True

* * *

target: DOR (Homo sapiens); test: cell-based; details: HEK-293T, read-out: Emax% cAMP inhibition hDOR
Sequence (P41143 whole entry): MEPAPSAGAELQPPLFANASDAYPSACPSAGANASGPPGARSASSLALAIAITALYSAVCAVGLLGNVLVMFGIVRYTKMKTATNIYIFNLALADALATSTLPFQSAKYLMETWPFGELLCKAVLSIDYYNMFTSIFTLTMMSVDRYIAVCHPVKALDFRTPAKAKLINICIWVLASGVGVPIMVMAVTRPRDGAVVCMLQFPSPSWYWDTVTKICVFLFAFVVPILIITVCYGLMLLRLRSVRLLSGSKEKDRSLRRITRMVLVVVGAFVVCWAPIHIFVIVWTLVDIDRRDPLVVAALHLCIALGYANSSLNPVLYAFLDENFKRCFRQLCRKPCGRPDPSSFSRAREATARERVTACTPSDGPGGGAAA
quantity-name: Emax (%)
Give bare numbers, in %.

# annotated cases, reported Emax shown
CO[C@@]12CC[C@@H](NC(=O)c3cccc(I)c3)C3Oc4c(O)ccc5c4[C@@]31CCN(CC1CC1)C2C5 (stereo partly shown) = 71
O=C(NC1CCC2(O)C3Cc4ccc(O)c5c4C2(CCN3CC2CC2)C1O5)c1cccc(I)c1 (stereo not shown) = 106
N=C(N)NCc1cccc(C(=O)N[C@@H]2CCC3C4Cc5ccc(O)c6c5[C@@]3(CCN4CC3CC3)C2O6)c1 (stereo partly shown) = 39
NCc1cccc(C(=O)N[C@@H]2CCC3C4Cc5ccc(O)c6c5[C@@]3(CCN4CC3CC3)C2O6)c1 (stereo partly shown) = 38
O=C(N[C@@H]1CC[C@@]2(O)C3Cc4ccc(O)cc4[C@@]2(CCN3CC2CC2)C1)c1cccc(I)c1 = 106

For each of the molecules below, note its Emax.
1. O=C(N[C@@H]1CCC2C3Cc4ccc(O)c5c4[C@@]2(CCN3CC2CC2)C1O5)c1cccc(I)c1 (stereo partly shown)
2. O=C(NC1C=CC2C3Cc4ccc(O)c5c4C2(CCN3CC2CC2)C1O5)c1cccc(I)c1 (stereo not shown)

output:
99
99

* * *

target: mMOR (Mus musculus, UniProt P42866); assay: biochemical; settings: read-out: Emax mMOR [35S]GTPγS
Sequence (P42866 whole entry): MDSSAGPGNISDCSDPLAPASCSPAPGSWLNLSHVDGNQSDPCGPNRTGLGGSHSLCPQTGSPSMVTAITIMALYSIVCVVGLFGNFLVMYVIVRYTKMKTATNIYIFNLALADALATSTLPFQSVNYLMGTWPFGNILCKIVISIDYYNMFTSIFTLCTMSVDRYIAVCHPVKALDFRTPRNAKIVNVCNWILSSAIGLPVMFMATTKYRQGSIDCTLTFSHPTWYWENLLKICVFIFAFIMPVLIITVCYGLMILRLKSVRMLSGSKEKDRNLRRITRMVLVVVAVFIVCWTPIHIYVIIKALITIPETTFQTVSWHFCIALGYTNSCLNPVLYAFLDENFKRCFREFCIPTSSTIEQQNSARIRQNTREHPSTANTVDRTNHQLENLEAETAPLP
Entry flag: Condition met if Emax reaches 70%; Condition not met if it does not.

O=C(N[C@@H]1CC[C@@]2(O)C3Cc4ccc(O)cc4[C@@]2(CCN3CC2CC2)C1)c1cccc(I)c1 [MP1601] = Condition not met

input: Record NCc1cccc(C(=O)N[C@@H]2CCC3C4Cc5ccc(O)c6c5[C@@]3(CCN4CC3CC3)C2O6)c1 (stereo partly shown) [MP1207] ; criterion: Emax no lower than 70%. Met?
output: Condition not met

input: Has CO[C@@]12CC[C@@H](NC(=O)c3cccc(I)c3)C3Oc4c(O)ccc5c4[C@@]31CCN(CC1CC1)C2C5 (stereo partly shown) [MP1305] a recorded Emax greater than or equal to 70%?
output: Condition met

input: Could you please find out whether O=C(NC1C=CC2C3Cc4ccc(O)c5c4C2(CCN3CC2CC2)C1O5)c1cccc(I)c1 (stereo not shown) [MP1104] has Emax that meets 70% or exceeds it?
output: Condition met

input: Does Emax meet or surpass 70% for O=C(NC1CCC2(O)C3Cc4ccc(O)c5c4C2(CCN3CC2CC2)C1O5)c1cccc(I)c1 (stereo not shown) [IBNtxA] ?
output: Condition met

input: Record N=C(N)NCc1cccc(C(=O)N[C@@H]2CCC3C4Cc5ccc(O)c6c5[C@@]3(CCN4CC3CC3)C2O6)c1 (stereo partly shown) [MP1208] ; criterion: Emax no lower than 70%. Met?
output: Condition not met

* * *

biological target: UniProtKB P32300; assay: biochemical; settings: read-out: Emax mDOR [35S]GTPγS
Sequence (P32300 whole entry): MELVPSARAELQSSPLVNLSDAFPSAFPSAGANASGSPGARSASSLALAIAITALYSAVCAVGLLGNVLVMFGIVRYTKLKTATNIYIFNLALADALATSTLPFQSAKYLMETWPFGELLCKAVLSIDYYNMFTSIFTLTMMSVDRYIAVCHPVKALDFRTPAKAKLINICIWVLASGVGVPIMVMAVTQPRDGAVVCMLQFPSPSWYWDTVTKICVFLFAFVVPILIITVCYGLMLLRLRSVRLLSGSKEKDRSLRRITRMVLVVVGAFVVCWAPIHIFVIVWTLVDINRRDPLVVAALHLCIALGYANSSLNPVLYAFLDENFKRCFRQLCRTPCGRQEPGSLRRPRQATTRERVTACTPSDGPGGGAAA
quantity-name: Emax (%)
One number for each entry, in %.

O=C(N[C@@H]1CC[C@@]2(O)C3Cc4ccc(O)cc4[C@@]2(CCN3CC2CC2)C1)c1cccc(I)c1 = 67

Please give Emax, item by item, for the list that follows.
1. CO[C@@]12CC[C@@H](NC(=O)c3cccc(I)c3)C3Oc4c(O)ccc5c4[C@@]31CCN(CC1CC1)C2C5 (stereo partly shown)
2. O=C(NC1C=CC2C3Cc4ccc(O)c5c4C2(CCN3CC2CC2)C1O5)c1cccc(I)c1 (stereo not shown)
3. O=C(NC1CCC2(O)C3Cc4ccc(O)c5c4C2(CCN3CC2CC2)C1O5)c1cccc(I)c1 (stereo not shown)
4. O=C(N[C@@H]1CCC2C3Cc4ccc(O)c5c4[C@@]2(CCN3CC2CC2)C1O5)c1cccc(I)c1 (stereo partly shown)

output:
22
88
95
71

* * *

Notes on ΔlogRA cAMP hMOR obtained with MOR (Homo sapiens).
Numbers only.

Some compounds with recorded ΔlogRA cAMP hMOR:
O=C(NC1CCC2(O)C3Cc4ccc(O)c5c4C2(CCN3CC2CC2)C1O5)c1cccc(I)c1 (centres unmarked) [IBNtxA] = 1.14
O=C(NC1C=CC2C3Cc4ccc(O)c5c4C2(CCN3CC2CC2)C1O5)c1cccc(I)c1 (centres unmarked) [MP1104] = 1.018
O=C(N[C@@H]1CCC2C3Cc4ccc(O)c5c4[C@@]2(CCN3CC2CC2)C1O5)c1cccc(I)c1 (some centres unmarked) [MP1202] = 1.55
O=C(N[C@@H]1CC[C@@]2(O)C3Cc4ccc(O)cc4[C@@]2(CCN3CC2CC2)C1)c1cccc(I)c1 [MP1601] = 1.44

Now for a further compound.
input: Give reported ΔlogRA cAMP hMOR for CO[C@@]12CC[C@@H](NC(=O)c3cccc(I)c3)C3Oc4c(O)ccc5c4[C@@]31CCN(CC1CC1)C2C5 (some centres unmarked) [MP1305] (MOR (Homo sapiens))
output: 1.17

* * *

target: KOR (Homo sapiens)
Sequence (P41145 whole entry): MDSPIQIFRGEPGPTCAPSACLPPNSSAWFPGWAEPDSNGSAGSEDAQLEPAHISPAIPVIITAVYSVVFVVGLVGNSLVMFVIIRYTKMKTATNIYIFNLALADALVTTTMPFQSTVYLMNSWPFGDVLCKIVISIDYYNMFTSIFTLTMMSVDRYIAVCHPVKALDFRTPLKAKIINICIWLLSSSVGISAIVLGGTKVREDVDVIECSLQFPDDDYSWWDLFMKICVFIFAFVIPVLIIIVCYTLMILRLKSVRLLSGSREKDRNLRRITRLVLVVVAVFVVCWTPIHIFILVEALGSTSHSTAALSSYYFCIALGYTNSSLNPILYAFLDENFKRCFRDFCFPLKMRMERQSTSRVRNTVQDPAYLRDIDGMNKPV
Answer each item with its documented ΔΔlog RA (cAMP-Tango) hKOR.
Numbers only.

O=C(N[C@@H]1CC[C@@]2(O)C3Cc4ccc(O)cc4[C@@]2(CCN3CC2CC2)C1)c1cccc(I)c1 = -0.282
N=C(N)NCc1cccc(C(=O)N[C@@H]2CCC3C4Cc5ccc(O)c6c5[C@@]3(CCN4CC3CC3)C2O6)c1 (stereo partly drawn) = 1.35
NCc1ccc(C(=O)N[C@@H]2CC[C@H]3[C@H]4Cc5ccc(O)c6c5[C@@]3(CCN4CC3CC3)[C@H]2O6)cc1 = -0.238
O=C(NC1CCC2(O)C3Cc4ccc(O)c5c4C2(CCN3CC2CC2)C1O5)c1cccc(I)c1 (stereo not drawn) = -1.002
O=C(N[C@@H]1CCC2C3Cc4ccc(O)c5c4[C@@]2(CCN3CC2CC2)C1O5)c1cccc(I)c1 (stereo partly drawn) = -0.19

For each listed entry, give its ΔΔlog RA (cAMP-Tango) hKOR.
1. NCc1cccc(C(=O)N[C@@H]2CCC3C4Cc5ccc(O)c6c5[C@@]3(CCN4CC3CC3)C2O6)c1 (stereo partly drawn)
2. O=C(NC1C=CC2C3Cc4ccc(O)c5c4C2(CCN3CC2CC2)C1O5)c1cccc(I)c1 (stereo not drawn)
3. O=C(N[C@@H]1CC[C@H]2[C@H]3Cc4ccc(O)c5c4[C@@]2(CCN3CC2CC2)[C@H]1O5)c1cccc(CO)c1
4. CO[C@@]12CC[C@@H](NC(=O)c3cccc(I)c3)C3Oc4c(O)ccc5c4[C@@]31CCN(CC1CC1)C2C5 (stereo partly drawn)

output:
0.903
-0.81
-0.28
0.55

* * *

Please go through the items and note down their Emax.
molecular target: rKOR (Rattus norvegicus, UniProt P34975); experiment: cell-based; settings: HEK-293T, read-out: Emax% G protein activation (BRET) rKOR
Sequence (P34975 whole entry): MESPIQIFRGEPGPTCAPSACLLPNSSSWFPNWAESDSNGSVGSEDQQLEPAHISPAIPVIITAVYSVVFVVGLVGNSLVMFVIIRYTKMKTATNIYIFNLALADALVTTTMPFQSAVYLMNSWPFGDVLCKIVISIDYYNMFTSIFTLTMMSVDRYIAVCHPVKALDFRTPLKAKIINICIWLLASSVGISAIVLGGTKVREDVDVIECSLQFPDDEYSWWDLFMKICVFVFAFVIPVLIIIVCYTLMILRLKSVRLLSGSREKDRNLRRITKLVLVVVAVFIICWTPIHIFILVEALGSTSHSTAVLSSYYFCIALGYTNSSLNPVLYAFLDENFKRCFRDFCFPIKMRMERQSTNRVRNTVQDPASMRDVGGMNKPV
One number for each entry, in %.

O=C(N[C@@H]1CCC2C3Cc4ccc(O)c5c4[C@@]2(CCN3CC2CC2)C1O5)c1cccc(I)c1 (stereo partly shown) = 104
N=C(N)NCc1cccc(C(=O)N[C@@H]2CCC3C4Cc5ccc(O)c6c5[C@@]3(CCN4CC3CC3)C2O6)c1 (stereo partly shown) = 40
O=C(NC1C=CC2C3Cc4ccc(O)c5c4C2(CCN3CC2CC2)C1O5)c1cccc(I)c1 (stereo not shown) = 93

input: Output measured Emax for this item: CO[C@@]12CC[C@@H](NC(=O)c3cccc(I)c3)C3Oc4c(O)ccc5c4[C@@]31CCN(CC1CC1)C2C5 (stereo partly shown)
output: 35

* * *

target: MOR (Homo sapiens, UniProt P35372)
Sequence (P35372 whole entry): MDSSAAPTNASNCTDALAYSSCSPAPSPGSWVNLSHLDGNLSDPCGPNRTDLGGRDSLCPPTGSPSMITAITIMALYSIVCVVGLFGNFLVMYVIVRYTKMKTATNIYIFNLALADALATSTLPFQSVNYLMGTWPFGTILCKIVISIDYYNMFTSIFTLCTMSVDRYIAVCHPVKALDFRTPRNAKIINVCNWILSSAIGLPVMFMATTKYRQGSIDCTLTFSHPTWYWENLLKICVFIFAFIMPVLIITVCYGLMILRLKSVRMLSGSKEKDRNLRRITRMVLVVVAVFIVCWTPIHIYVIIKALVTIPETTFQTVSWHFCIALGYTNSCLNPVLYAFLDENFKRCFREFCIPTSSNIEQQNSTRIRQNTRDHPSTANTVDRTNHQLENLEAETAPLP
quantity-name: arrestin recruitment at hMOR (in words)

NCc1cccc(C(=O)N[C@@H]2CCC3C4Cc5ccc(O)c6c5[C@@]3(CCN4CC3CC3)C2O6)c1 (stereo partly shown) = completely abolished
N=C(N)NCc1cccc(C(=O)N[C@@H]2CCC3C4Cc5ccc(O)c6c5[C@@]3(CCN4CC3CC3)C2O6)c1 (stereo partly shown) = completely abolished

* * *

Values of ΔΔlog RA (BRETG-BRETArr) rKOR reported for rKOR (Rattus norvegicus) appear below.
One number for each entry.

Example results:
O=C(NC1C=CC2C3Cc4ccc(O)c5c4C2(CCN3CC2CC2)C1O5)c1cccc(I)c1 (stereo not shown) = -0.64
O=C(NC1CCC2(O)C3Cc4ccc(O)c5c4C2(CCN3CC2CC2)C1O5)c1cccc(I)c1 (stereo not shown) = -0.218
O=C(N[C@@H]1CC[C@@]2(O)C3Cc4ccc(O)cc4[C@@]2(CCN3CC2CC2)C1)c1cccc(I)c1 = -0.006

Turning to the following compound.
input: Given O=C(N[C@@H]1CCC2C3Cc4ccc(O)c5c4[C@@]2(CCN3CC2CC2)C1O5)c1cccc(I)c1 (stereo partly shown) , respond with its ΔΔlog RA (BRETG-BRETArr) rKOR.
output: -0.399
